test: Pharmacokinetic parameters following intravenous administration to rats; type: in vivo, male Wistar rats; conditions: male, Wistar, plasma; rat, 0.3 mg/kg intravenous; read-out: Terminal half-life (converted)
Entries annotated with measured half-life

compound	valueUnit	half-life
CC1(C)C(=O)Nc2nc(-c3nc(Cc4c(F)ccc(F)c4F)n4cc(Cl)ccc34)nnc21 [Example 11]	h	7.2
CC1(C)C(=O)Nc2nc(-c3nc(CCC(F)(F)C(F)(F)F)n4cc(F)ccc34)nnc21 [Example 12]	h	5.2
